Values compiled from paper PMC10893631.

system: HCC-2998; experiment: NCI SRB growth inhibition (single dose 10 µM / five-dose); format: cell-based, human; conditions: Homo sapiens; HCC-2998 (Colon cancer), 10 µM; read-out: GI%
PARAMETER: inhibition at 10 µM (%)
Expressed in %, but write only the number.

Some entries whose results are on file:
[
  {
    "COMPOUND": "O=C(NN=Cc1cccc(O)c1)c1ccc2[nH]c(-c3ccc(Cl)cc3)nc2c1 [8p]",
    "ENDPOINT_RESULT": 15.9
  },
  {
    "COMPOUND": "COc1ccc(-c2nc3cc(C(=O)NN=Cc4ccc(OC)c(O)c4)ccc3[nH]2)cc1 [8l]",
    "ENDPOINT_RESULT": 15
  },
  {
    "COMPOUND": "COc1cc(C=NNC(=O)c2ccc3[nH]c(-c4ccccc4)nc3c2)cc(OC)c1OC [8g]",
    "ENDPOINT_RESULT": 44.3
  },
  {
    "COMPOUND": "COc1cccc(C=NNC(=O)c2ccc3[nH]c(-c4ccccc4)nc3c2)c1O [8d]",
    "ENDPOINT_RESULT": 98.5
  },
  {
    "COMPOUND": "COc1ccc(OC)c(C=NNC(=O)c2ccc3[nH]c(-c4ccc(Cl)cc4)nc3c2)c1 [8t]",
    "ENDPOINT_RESULT": 14.6
  },
  {
    "COMPOUND": "COc1ccc(-c2nc3cc(C(=O)NN=Cc4cccc(OC)c4)ccc3[nH]2)cc1 [8j]",
    "ENDPOINT_RESULT": 88.5
  },
  {
    "COMPOUND": "COc1cccc(C=NNC(=O)c2ccc3[nH]c(-c4ccc(Cl)cc4)nc3c2)c1 [8q]",
    "ENDPOINT_RESULT": 79.6
  },
  {
    "COMPOUND": "COc1ccc(-c2nc3cc(C(=O)NN=Cc4cccc(O)c4)ccc3[nH]2)cc1 [8i]",
    "ENDPOINT_RESULT": 14.9
  },
  {
    "COMPOUND": "COc1ccc(OC)c(C=NNC(=O)c2ccc3[nH]c(-c4ccccc4)nc3c2)c1 [8f]",
    "ENDPOINT_RESULT": 8.92
  },
  {
    "COMPOUND": "O=C(NN=Cc1ccccc1O)c1ccc2[nH]c(-c3ccc(Cl)cc3)nc2c1 [8o]",
    "ENDPOINT_RESULT": 78
  }
]

Input line: Entry COc1ccc(C=NNC(=O)c2ccc3[nH]c(-c4ccc(Cl)cc4)nc3c2)cc1O [8s] , system HCC-2998: what inhibition at 10 µM was measured?
Output line: 86.8

Input line: Entry COc1ccc(-c2nc3cc(C(=O)NN=Cc4ccccc4O)ccc3[nH]2)cc1 [8h] , system HCC-2998: what inhibition at 10 µM was measured?
Output line: 99.6

* * *

Entries and their inhibition at 10 µM values follow.
test system: RXF 393; test: NCI SRB growth inhibition (single dose 10 µM / five-dose); type: cell-based, human; details: Homo sapiens; RXF 393 (Renal cancer), 10 µM; read-out: GI%
Expressed in %, but write only the number.

Some entries whose results are on file:
[
  {
    "SMILES_REPR": "COc1ccc(OC)c(C=NNC(=O)c2ccc3[nH]c(-c4ccccc4)nc3c2)c1",
    "ENDPOINT_RESULT": 50
  },
  {
    "SMILES_REPR": "COc1ccc(-c2nc3cc(C(=O)NN=Cc4cccc(O)c4)ccc3[nH]2)cc1",
    "ENDPOINT_RESULT": 14.5
  },
  {
    "SMILES_REPR": "COc1cccc(C=NNC(=O)c2ccc3[nH]c(-c4ccccc4)nc3c2)c1",
    "ENDPOINT_RESULT": 29.2
  }
]

Input line: Name the recorded inhibition at 10 µM for COc1cccc(C=NNC(=O)c2ccc3[nH]c(-c4ccccc4)nc3c2)c1O .
Output line: 86

* * *

system: HT29; experiment: NCI SRB growth inhibition (single dose 10 µM / five-dose); type: cell-based, human; conditions: Homo sapiens, HT-29; HT29 (Colon cancer), 10 µM; read-out: GI%
Entries and their inhibition at 10 µM values follow.
Expressed in %, but write only the number.

Input line: Name the recorded inhibition at 10 µM for COc1ccc(C=NNC(=O)c2ccc3[nH]c(-c4ccccc4)nc3c2)cc1O .
Output line: 95.8

Input line: Name the recorded inhibition at 10 µM for O=C(NN=Cc1cccc(O)c1)c1ccc2[nH]c(-c3ccccc3)nc2c1 .
Output line: 16.4

Input line: Name the recorded inhibition at 10 µM for COc1ccc(-c2nc3cc(C(=O)NN=Cc4cccc(O)c4)ccc3[nH]2)cc1 .
Output line: 74.5

Input line: Name the recorded inhibition at 10 µM for COc1ccc(OC)c(C=NNC(=O)c2ccc3[nH]c(-c4ccc(Cl)cc4)nc3c2)c1 .
Output line: 20.3

Input line: Name the recorded inhibition at 10 µM for O=C(NN=Cc1cccc(O)c1)c1ccc2[nH]c(-c3ccc(Cl)cc3)nc2c1 .
Output line: 19.9

* * *

system: RXF 393; assay: NCI SRB growth inhibition (single dose 10 µM / five-dose); assay type: cell-based, human; conditions: Homo sapiens; RXF 393 (Renal cancer), 10 µM; read-out: GI%
Entries and their inhibition at 10 µM values follow.
Expressed in %, but write only the number.

Some entries whose results are on file:
[
  {
    "SMILES_REPR": "COc1ccc(OC)c(C=NNC(=O)c2ccc3[nH]c(-c4ccc(Cl)cc4)nc3c2)c1",
    "inhibition at 10 µM [%]": 96.5
  },
  {
    "SMILES_REPR": "O=C(NN=Cc1cccc(O)c1)c1ccc2[nH]c(-c3ccc(Cl)cc3)nc2c1",
    "inhibition at 10 µM [%]": 31.6
  }
]

Next up:
Input line: Name the recorded inhibition at 10 µM for COc1ccc(-c2nc3cc(C(=O)NN=Cc4cc(OC)ccc4OC)ccc3[nH]2)cc1 .
Output line: 15.2

* * *

Entries and their GI50 values follow.
system: CAKI-1; test: NCI SRB growth inhibition (single dose 10 µM / five-dose); type: cell-based, human; conditions: Homo sapiens; CAKI-1, Renal cancer; five-dose
Expressed in µM, but write only the number.

Some entries whose results are on file:
[
  {
    "COMPOUND": "COc1ccc(-c2nc3cc(C(=O)NN=Cc4cccc(OC)c4)ccc3[nH]2)cc1 [8j]",
    "ASSAYED_TARGET": "CAKI-1",
    "GI50 [µM]": 2.81
  },
  {
    "COMPOUND": "COc1ccc(-c2nc3cc(C(=O)NN=Cc4ccccc4O)ccc3[nH]2)cc1 [8h]",
    "ASSAYED_TARGET": "CAKI-1",
    "GI50 [µM]": 1.78
  },
  {
    "COMPOUND": "COc1ccc(-c2nc3cc(C(=O)NN=Cc4cccc(OC)c4O)ccc3[nH]2)cc1 [8k]",
    "ASSAYED_TARGET": "CAKI-1",
    "GI50 [µM]": 3.64
  },
  {
    "COMPOUND": "COc1cccc(C=NNC(=O)c2ccc3[nH]c(-c4ccc(Cl)cc4)nc3c2)c1 [8q]",
    "ASSAYED_TARGET": "CAKI-1",
    "GI50 [µM]": 3.84
  }
]

Input line: Entry COc1cc(C=NNC(=O)c2ccc3[nH]c(-c4ccc(Cl)cc4)nc3c2)cc(OC)c1OC [8u] , system CAKI-1: what GI50 was measured?
Output line: 11.2

* * *

test system: MALME-3 M; assay: NCI SRB growth inhibition (single dose 10 µM / five-dose); assay type: cell-based, human; details: Homo sapiens; MALME-3 M, Melanoma; five-dose
PARAMETER: GI50 (µM)
Expressed in µM, but write only the number.

Some entries whose results are on file:
[
  {
    "COMPOUND": "COc1cccc(C=NNC(=O)c2ccc3[nH]c(-c4ccccc4)nc3c2)c1O [8d]",
    "GI50 [µM]": 1.37
  },
  {
    "COMPOUND": "COc1cccc(C=NNC(=O)c2ccc3[nH]c(-c4ccc(Cl)cc4)nc3c2)c1 [8q]",
    "GI50 [µM]": 1.54
  },
  {
    "COMPOUND": "COc1cccc(C=NNC(=O)c2ccc3[nH]c(-c4ccc(Cl)cc4)nc3c2)c1O [8r]",
    "GI50 [µM]": 1.36
  },
  {
    "COMPOUND": "O=C(NN=Cc1ccccc1O)c1ccc2[nH]c(-c3ccc(Cl)cc3)nc2c1 [8o]",
    "GI50 [µM]": 1.03
  },
  {
    "COMPOUND": "COc1ccc(-c2nc3cc(C(=O)NN=Cc4cccc(OC)c4)ccc3[nH]2)cc1 [8j]",
    "GI50 [µM]": 2.45
  }
]

Input line: Name the recorded GI50 for COc1ccc(-c2nc3cc(C(=O)NN=Cc4cccc(OC)c4O)ccc3[nH]2)cc1 [8k] .
Output line: 1.09

Input line: Name the recorded GI50 for COc1ccc(-c2nc3cc(C(=O)NN=Cc4ccccc4O)ccc3[nH]2)cc1 [8h] .
Output line: 1.77

Input line: Name the recorded GI50 for COc1cc(C=NNC(=O)c2ccc3[nH]c(-c4ccc(Cl)cc4)nc3c2)cc(OC)c1OC [8u] .
Output line: 1.12
